Origin of measurements: PubChem BioAssay (NCATS)

I'd be grateful if you could share measured max response for these entries.
tested on: HaCat; experiment: Cytotoxic Profiling of Annotated Libraries Using Quantitative High-Throughput Screening (AID 1296008); conditions: Five cell lines viability, CellTiter-Glo ATP luminescence, 48-72 h; active compounds read low; also: % is scaled to controls: 0 for no effect and ±100 for the full control effect; nearly all actives have a fitted effect of over 60% in size
Records with an inconclusive call do not appear.
// return numeric value only (unit: %, not printed)

Q: Consider the compound `Cc1cc(N2CCN([C@@H]3CN[C@H](C(=O)N4CCSC4)C3)CC2)n(-c2ccccc2)n1` . State its measured max response.
Ans: -10.6

Q: Consider the compound C=CC1(C)CC(OC(=O)/C(C)=C\COC(C)=O)C(C(=C)C(=O)O)C(O)C1C(=C)CO (configuration not stated) . State its measured max response.
Ans: 3.73

Q: Consider the compound C[C@@H]1O[C@@H](O[C@H]2[C@H](O)[C@@H](O[C@@H]3O[C@H](CO)[C@@H](O)[C@H](O[C@@H]4O[C@H](CO)[C@@H](O)[C@H](O)[C@H]4O)[C@H]3O)[C@H](O[C@H]3CC[C@@]4(C)C(=CC[C@@H]5C4CC[C@@]4(C)C5C[C@@H]5OC6(CC[C@@](C)(CO[C@@H]7O[C@H](CO)[C@@H](O)[C@H](O)[C@H]7O)O6)[C@@H](C)[C@@H]54)C3)O[C@@H]2CO)[C@H](O)[C@H](O)[C@H]1OC1OC(CO)C(O)C(O)C1O (some centres not stated) . State its measured max response.
Ans: -1.18

Q: Consider the compound `N#Cc1ccc(C(=O)N2CCC3(CC2)N=C(N)c2c(F)ccc(F)c2N3)cn1` . State its measured max response.
Ans: 2.01

Q: Consider the compound `Cn1ncnc1COc1nn2c(-c3cc(F)ccc3F)nnc2cc1C(C)(C)C` . State its measured max response.
Ans: -21.7

Q: Consider the compound COC(=O)C1=COC(O[C@@H]2O[C@H](CO)[C@@H](O)[C@H](O)[C@H]2O)[C@H]2[C@@H]1[C@H](OC(=O)CCc1ccc(O)cc1)C[C@]2(C)O (some centres not stated) . State its measured max response.
Ans: -1.18

Q: Consider the compound CC1CCC2(C=O)C(CO)=CCCC2C1(C)CC(=O)O (configuration not stated) . State its measured max response.
Ans: -1.16

Q: Consider the compound `O=C(/C=C\n1cnc(-c2cc(C(F)(F)F)cc(C(F)(F)F)c2)n1)N1CC(F)(F)C1` . State its measured max response.
Ans: -18.4

Q: Consider the compound CC(=O)/C=C/[C@H]1[C@](C)(O)[C@@H](O)[C@H](OC(C)=O)C2C(C)(C)CCC[C@@]21C (some centres not stated) . State its measured max response.
Ans: -21.7

Q: Consider the compound `CCCCC1CCN(CCCC(=O)c2ccccc2C)CC1` . State its measured max response.
Ans: -61.6

Q: Consider the compound `Cc1c(F)cc(C(=O)NC2CC2)cc1-c1c(F)cn2c(C(C)(C)C)nnc2c1F` . State its measured max response.
Ans: -0.453

Q: Consider the compound `COc1cc(C)c(C(=O)O[C@H]2[C@@H](OC(C)=O)[C@H](n3ccc(=O)[nH]c3=O)O[C@@H]2CO)c(OC)c1` . State its measured max response.
Ans: -9.32

Q: Consider the compound CC(=O)OC1C[C@]2(C)C(O)CC(C)=C[C@H](OC(=O)c3ccc(O)cc3)C2[C@]1(O)C(C)C (some centres not stated) . State its measured max response.
Ans: -0.241

Q: Consider the compound `Cn1nnc(-c2ccc(-c3ccc(N4C[C@H](CO)OC4=O)cc3F)cn2)n1` . State its measured max response.
Ans: -5.65

Q: Consider the compound `CCn1cc(NC(=S)Nc2cc(Cl)ccc2OC)c(C(N)=O)n1` . State its measured max response.
Ans: -0.793

Q: Consider the compound `CC(C)CC(=O)O[C@@H]1OC=C(CO[C@@H]2O[C@H](CO)[C@@H](O)[C@H](O)[C@H]2O)[C@H]2[C@@H]3O[C@H]3[C@@](O)(CO)[C@@H]12` . State its measured max response.
Ans: 1.46

Q: Consider the compound `O=C(/C=C\c1ccc(O)cc1)N[C@@H](Cc1ccc(O)cc1)C(=O)O` . State its measured max response.
Ans: -12.4
